Tested on: T1, MC1 R25Q (Methanosarcina thermophila CHTI55, UniProt P12770 1-93, R25Q)
T1 sequence: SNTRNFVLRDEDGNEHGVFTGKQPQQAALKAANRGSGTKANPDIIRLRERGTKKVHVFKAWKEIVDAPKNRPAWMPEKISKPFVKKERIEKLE
Method notes: EMSA; EMSA: 10 mM Tris-HCl pH 7.5, 150 mM NaCl, 1 mM EDTA, 15 ug/ml BSA, 8% glycerol, 15 min at 20 C, 0.1 nM DNA, TBE gel; NMR PRE: 10 mM phosphate pH 6, 100 mM NaCl, 10% D2O
Details: protein: recombinant; label: 5'-32P on one strand; blunt
Result type: pKd
Value format note: pKd is -log10 of concentration (mol/L); just state the number.

Prompt: Which pKd is listed for 26 bp EMSA duplex (dsDNA) DNA 1: GCCTCAAAAACACACACCCCCGACAG DNA 2: CTGTCGGGGGTGTGTGTTTTTGAGGC ?
Completion: 6.26
